Experiment: Lu levels in tumor, kidney and liver of mice at 0.5 mg/kg
Average Lu in kidney values by entry
Please state the figure in % ID/g; there is no need to write the unit.

Worked set:
// query Annotate the molecule CCNC(=O)c1nnc(-c2cc(C(C)C)c(O)cc2O)n1-c1ccc(CN2CCN(C(=O)CCNC(=O)CC[C@@H](NC(=O)CC[C@@H]3C(=O)[O][Lu]4[O]C(=O)CN5CCN(CC(=O)O)CCN3CCN(CC5)CC(=O)[O]4)C(=O)N3CCN(Cc4ccc(-n5c(C(=O)NCC)nnc5-c5cc(C(C)C)c(O)cc5O)cc4)CC3)CC2)cc1 [Conjugate 9] with its measured Average Lu in kidney.
// result 2.40

// query Please look at this molecule and report its Average Lu in kidney: CCNC(=O)c1nnc(-c2cc(C(C)C)c(O)cc2O)n1-c1ccc(CN2CCN(C(=O)CCNC(=O)[C@@H](CCC(=O)O)NC(=O)[C@@H](CCC(=O)O)NC(=O)[C@@H](CCC(=O)O)NC(=O)COCCOCCNC(=O)CCCCn3cc(CN(CCCNC(=O)CC[C@H](C(=O)O)N4CCN5CCN6CCN(CC4)CC(=O)[O][Lu]([O]C(=O)C6)[O]C(=O)C5)C(=O)CCCNC(=O)CCCc4ccc(I)cc4)nn3)CC2)cc1 [Conjugate 10]
// result 11.18

// query For the molecule CCNC(=O)c1nnc(-c2cc(C(C)C)c(O)cc2O)n1-c1ccc(CN2CCN(C(=O)CCNC(=O)[C@@H](CCC(=O)O)NC(=O)[C@@H](CCC(=O)O)NC(=O)[C@@H](CCC(=O)O)NC(=O)CN3CCN4CCN5CCN(CC3)CC(=O)[O][Lu]([O]C(=O)C4)[O]C(=O)C5)CC2)cc1 [Conjugate 2] , give its reported Average Lu in kidney.
// result 2.86

The record that follows has no Average Lu in kidney shown yet.
// query Give reported Average Lu in kidney value for CCNC(=O)c1nnc(-c2cc(C(C)C)c(O)cc2O)n1-c1ccc(CN2CCN(C(=O)CN3CCN4CCN5CCN(CC3)CC(=O)[O][Lu]([O]C(=O)C5)[O]C(=O)C4)CC2)cc1 [Conjugate 1]
// result 1.00

Where do these numbers come from? They come from patent US20250387492A1.
